Molecular target: Thyroid hormone receptor beta (Homo sapiens) (UniProt P10828)
Sequence (P10828 whole entry, looked up): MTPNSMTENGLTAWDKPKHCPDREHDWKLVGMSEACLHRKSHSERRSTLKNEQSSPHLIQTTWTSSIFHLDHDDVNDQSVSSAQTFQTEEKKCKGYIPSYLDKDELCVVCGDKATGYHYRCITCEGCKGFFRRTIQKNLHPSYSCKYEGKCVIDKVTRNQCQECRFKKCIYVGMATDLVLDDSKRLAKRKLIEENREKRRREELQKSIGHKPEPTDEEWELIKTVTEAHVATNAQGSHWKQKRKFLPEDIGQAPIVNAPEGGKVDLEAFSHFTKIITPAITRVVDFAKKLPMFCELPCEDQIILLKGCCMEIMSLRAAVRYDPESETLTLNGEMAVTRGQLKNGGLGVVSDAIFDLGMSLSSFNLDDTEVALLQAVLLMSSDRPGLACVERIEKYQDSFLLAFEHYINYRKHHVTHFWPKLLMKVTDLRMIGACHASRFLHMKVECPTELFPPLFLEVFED
Assay: qHTS assay for small molecule antagonists of thyroid hormone receptor beta signaling (AID 588547);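 note: cells stimulated with 0.4 nM T3 agonist during compound exposure; % is set by controls: 0 for no effect and ±100 for the full control effect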
Settings: TR-UAS-bla HEK293, beta-lactamase ratio, antagonist mode, 18 h
Inconclusive results are not listed.
endpoint label: activity change % (negative = inhibition) (%)
Express your answer in %, writing the number without its unit.

{"compound smiles": "NNC(=O)c1ccncc1", "experimental system": "Thyroid hormone receptor beta (Homo sapiens) (UniProt P10828)", "recorded result": 10.5}
{"compound smiles": "COc1ccc2cc3[n+](cc2c1OC)CCc1cc2c(cc1-3)OCO2", "experimental system": "Thyroid hormone receptor beta (Homo sapiens) (UniProt P10828)", "recorded result": -20.8}
{"compound smiles": "Cc1ccnc2c1NC(=O)c1cccnc1N2C1CC1", "experimental system": "Thyroid hormone receptor beta (Homo sapiens) (UniProt P10828)", "recorded result": -3.97}
{"compound smiles": "Cc1cc(NS(=O)(=O)c2ccc(N)cc2)no1", "experimental system": "Thyroid hormone receptor beta (Homo sapiens) (UniProt P10828)", "recorded result": -2.53}

Okay, now this compound:
Task: // activity change % (negative = inhibition) lookup, key: N[C@@H](Cc1ccc(O)c(O)c1)C(=O)O
Result: -11.9

====

Assay: Cell Viability - LYMP2-011 (AID 969);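 note: cells exposed to compound for 24 hours; 0% = DMSO only and full inhibition = 92 µM tetraoctylammonium bromide; nearly all actives have a fitted effect of over 60% in size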
Settings: LYMP2-011 lymphoblastoid cells viability; series mostly up to 92.2 µM
Inconclusive results are not listed. Activity calls are given as the source filed them. Calls follow the shape of the dose curve; as a rule, active = well fitted cell-killing curve with a large enough effect; inconclusive = small, poorly fitted or top-dose-only effect; inactive = flat fitted curve, though single readings scatter.
endpoint label: outcome

Sample answers from the record:
{"compound smiles": "C[C@]12C=CC(=O)C=C1CC[C@@H]1[C@@H]2C(=O)C[C@@]2(C)[C@H]1CC[C@]2(O)C(=O)CO", "outcome": "inactive"}
{"compound smiles": "NC(N)=NC(N)=NCCc1ccccc1", "outcome": "inactive"}
{"compound smiles": "NNC(=O)c1ccncc1", "outcome": "inactive"}
{"compound smiles": "CC1=NN(c2ccccc2)C(=O)C1", "outcome": "inactive"}
{"compound smiles": "Cc1noc(NS(=O)(=O)c2ccc(N)cc2)c1C", "outcome": "inactive"}

Task: // outcome lookup, key: COc1ccc2cc3[n+](cc2c1OC)CCc1cc2c(cc1-3)OCO2
Result: inactive

Task: Also need CC[C@H](C)C(=O)O[C@H]1C[C@@H](C)C=C2C=C[C@H](C)[C@H](CC[C@@H]3C[C@@H](O)CC(=O)O3)[C@H]21 , thanks.
Result: inactive

Task: Also need CCc1cc(C(N)=S)ccn1 , thanks.
Result: inactive

Task: Also need Cc1ccnc2c1NC(=O)c1cccnc1N2C1CC1 , thanks.
Result: inactive

====

Test: Quantitative High-Throughput drug screen in 47 multiple myeloma cell lines against the NCATS MIPE library collection: FR4_PLB cell viability assay (AID 1918924; note: nearly all actives have a fitted effect of over 35% in size)
Conditions: FR4_PLB myeloma cells viability, CellTiter-Glo ATP, 48 h; series mostly up to 45.8 µM
Inconclusive results are not listed. Activity calls are given as the source filed them. Calls follow the shape of the dose curve; as a rule, active = well fitted cell-killing curve with a large enough effect; inconclusive = small, poorly fitted or top-dose-only effect, or effect the other way; inactive = no such curve, though single readings can be large or run the other way.
One label from this list, please: 1.0 = active, 0.0 = inactive

{"compound smiles": "COc1ccc(-c2ccc3cc(C(=O)O)ccc3c2)cc1C12CC3CC(CC(C3)C1)C2", "class name": 0.0}
{"compound smiles": "Cc1onc(-c2ccccc2Cl)c1C(=O)N[C@@H]1C(=O)N2[C@@H]1SC(C)(C)[C@@H]2C(=O)O", "class name": 0.0}
{"compound smiles": "C[C@@H](NCCCc1cccc(C(F)(F)F)c1)c1cccc2ccccc12", "class name": 0.0}
{"compound smiles": "Nc1ccc(S(=O)(=O)Nc2ccccn2)cc1", "class name": 0.0}
{"compound smiles": "NC(=O)c1cccnc1", "class name": 0.0}

Task: # lookup: test call for COc1ncnc(NS(=O)(=O)c2ccc(N)cc2)c1OC
Result: 0.0

Task: Also need COc1cccc(N(C)C(=S)Oc2ccc3c(c2)CCCC3)n1 , thanks.
Result: 0.0

Task: Also need CC(C)C[C@H](NC(=O)[C@H](CCc1ccccc1)NC(=O)CN1CCOCC1)C(=O)N[C@@H](Cc1ccccc1)C(=O)N[C@@H](CC(C)C)C(=O)[C@@]1(C)CO1 , thanks.
Result: 1.0

====

Assay: Quantitative high throughput screen for delayed death inhibitors of the malarial parasite plastid, 48 hour incubation (AID 488752); note: nearly all actives have a fitted effect of over 65% in size
Conditions: Plasmodium falciparum growth; series mostly up to 28.7 µM
Results filed as inconclusive are left out. Calls of active or inactive are those of the source. The call rests on the fitted dose curve; in most records, active means well fitted inhibition curve with a large enough effect; inconclusive means small, poorly fitted or top-dose-only effect, or effect the other way; inactive means flat fitted curve, though single readings scatter.
One label from this list, please: true (1) for active, false (0) for inactive

For orientation, consider the following solved cases.
{"compound": "COc1cc2ncnc(Nc3cccc(Cl)c3)c2cc1OC", "class name": "true (1)"}
{"compound": "CCN1CCCC1CNC(=O)c1cc(S(N)(=O)=O)ccc1OC (configuration not stated)", "class name": "false (0)"}
{"compound": "OCc1ccc(-c2nn(Cc3ccccc3)c3ccccc23)o1", "class name": "false (0)"}
{"compound": "CC(C)(C)NC(=O)[C@H]1CC[C@H]2[C@@H]3CC[C@H]4NC(=O)C=C[C@]4(C)[C@H]3CC[C@]12C", "class name": "false (0)"}
{"compound": "Nc1nc(N)c2nc(CNc3ccc(C(=O)NC(CCC(=O)O)C(=O)O)cc3)cnc2n1 (configuration not stated)", "class name": "false (0)"}
{"compound": "CC1=C(C(=O)O)N2C(=O)[C@@H](NC(=O)C(N)c3ccccc3)[C@H]2SC1 (some centres not stated)", "class name": "false (0)"}

Task: # lookup: test call for CC(=O)[C@H]1CC[C@H]2[C@@H]3CCC4=CC(=O)CC[C@]4(C)[C@H]3CC[C@]12C
Result: false (0)

====

System: CP269
Assay: qHTS profiling for inhibitors of Plasmodium falciparum proliferation (AID 504749);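 note: 0% = DMSO vehicle and full inhibition = artemisinin control; nearly all actives have a fitted effect of over 60% in size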
Details: P. falciparum in erythrocytes, SYBR Green DNA, 72 h; series mostly up to 28.7 µM
Inconclusive results are not listed. Active and inactive are the calls of the source. Calls follow the shape of the dose curve; as a rule, active = well fitted inhibition curve with a large enough effect; inconclusive = small, poorly fitted or top-dose-only effect; inactive = flat fitted curve, though single readings scatter.
One label from this list, please: active, inactive

{"compound": "COc1cccc(N(C)C(=S)Oc2ccc3c(c2)CCCC3)n1", "class name": "inactive"}

Task: # lookup: test call for CCC(C)(C)c1ccc(CC(C)CN2C[C@@H](C)O[C@@H](C)C2)cc1 (some centres not stated)
Result: inactive

Task: Also need NC(N)=NC(N)=NCCc1ccccc1 , thanks.
Result: inactive

Task: Also need NCCCC(O)(P(=O)(O)O)P(=O)(O)O , thanks.
Result: inactive

Task: Also need Cc1cccc(Nc2ccncc2S(=O)(=O)NC(=O)NC(C)C)c1 , thanks.
Result: inactive

Task: Also need O=NN(CCCl)C(=O)NC1CCCCC1 , thanks.
Result: inactive

Task: Also need CN(CCOc1ccc(CC2SC(=O)NC2=O)cc1)c1ccccn1 (configuration not stated) , thanks.
Result: inactive

Task: Also need CC1=CC(=O)c2ccccc2C1=O , thanks.
Result: inactive

====

cell viability, % of control (lower = more cytotoxic) for assorted molecules
Assay: High-throughput drug toxicity screening in the BPDCN cell line Gen2.2 (AID 1224824);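 note: cells exposed to compounds for 48 h before reading; 100% = DMSO and 0% = bortezomib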
Details: Gen2.2 BPDCN cells; at 45.8 µM (top of the series) unless noted
Express your answer in %, writing the number without its unit.

Sample answers from the record:
{"molecule": "Cc1noc(NS(=O)(=O)c2ccc(N)cc2)c1C", "quantity unit": "%", "recorded result": 138}
{"molecule": "Nc1nc(F)nc2c1ncn2[C@@H]1O[C@H](CO)[C@@H](O)[C@@H]1O", "quantity unit": "%", "recorded result": 9.4}
{"molecule": "N[C@@H](C(=O)N[C@@H]1C(=O)N2C(C(=O)O)=C(Cl)CS[C@H]12)c1ccccc1", "quantity unit": "%", "recorded result": 133}
{"molecule": "CN(CCOc1ccc(CC2SC(=O)NC2=O)cc1)c1ccccn1 (centres undefined)", "quantity unit": "%", "recorded result": 101}
{"molecule": "CC1=CC(=O)c2ccccc2C1=O", "quantity unit": "%", "recorded result": 2.97}
{"molecule": "NC(=O)c1cccc(N)c1", "quantity unit": "%", "recorded result": 84.2}
{"molecule": "CC(N)C12CC3CC(CC(C3)C1)C2 (centres undefined)", "quantity unit": "%", "recorded result": 175}
{"molecule": "COc1ccccc1OCC(O)COC(N)=O (centres undefined)", "quantity unit": "%", "recorded result": 109}
{"molecule": "NC(=O)N1c2ccccc2CC(=O)c2ccccc21", "quantity unit": "%", "recorded result": 104}
{"molecule": "CCOC(=O)[C@H](CCc1ccccc1)N[C@H]1CCc2ccccc2N(CC(=O)O)C1=O", "quantity unit": "%", "recorded result": 22.7}

Task: // cell viability, % of control (lower = more cytotoxic) lookup, key: COc1ccc(-c2ccc3cc(C(=O)O)ccc3c2)cc1C12CC3CC(CC(C3)C1)C2
Result: 521

Task: Also need CCN(C)C(=O)Oc1cccc([C@H](C)N(C)C)c1 , thanks.
Result: 97.8

Task: Also need CCC(=O)O[C@]1(C(=O)SCF)[C@H](C)C[C@H]2[C@@H]3C[C@H](F)C4=CC(=O)C=C[C@]4(C)[C@@]3(F)[C@@H](O)C[C@@]21C , thanks.
Result: 84.3

Task: Also need CCc1c2c(nc3ccc(OC(=O)N4CCC(N5CCCCC5)CC4)cc13)-c1cc3c(c(=O)n1C2)COC(=O)[C@]3(O)CC , thanks.
Result: 21.9

Task: Also need CCN1CCCC1CNC(=O)c1cc(S(N)(=O)=O)ccc1OC (centres undefined) , thanks.
Result: 128

Task: Also need Nc1ccc(S(=O)(=O)Nc2ccccn2)cc1 , thanks.
Result: 123

Task: Also need CCC(=O)O[C@]1(C(=O)CCl)[C@@H](C)C[C@H]2[C@@H]3CCC4=CC(=O)C=C[C@]4(C)[C@@]3(F)[C@@H](O)C[C@@]21C , thanks.
Result: 44.1

Task: Also need COc1cc([C@@H]2c3cc4c(cc3[C@H](O)[C@H]3COC(=O)[C@H]23)OCO4)cc(OC)c1OC , thanks.
Result: 7.94

Task: Also need Clc1ccccc1CN1CCc2sccc2C1 , thanks.
Result: 91.7

Task: Also need Cc1oc(=O)oc1CN1CCN(c2cc3c(cc2F)c(=O)c(C(=O)O)c2n3C(C)S2)CC1 (centres undefined) , thanks.
Result: 162

Task: Also need CCCc1cc(C(N)=S)ccn1 , thanks.
Result: 119

Task: Also need CC(C)Cn1cnc2c(N)nc3ccccc3c21 , thanks.
Result: 11.8

Task: Also need CC[C@H](NC(C)C)[C@H](O)c1ccc(O)c2[nH]c(=O)ccc12 , thanks.
Result: 160

Task: Also need Nc1[nH]c(=O)ncc1F , thanks.
Result: 87.4
